Test system: SNB-75 CNS
EXPERIMENT: NCI tumour cell line growth inhibition, 48 h
Use 70 µM as the dividing line for TGI, with the line itself on the 1 (yes) side and lower values as 0 (no).

1) CC(=O)c1cc2c(N)c(C(=O)Nc3cccc4ccccc34)sc2nc1C    0 (no)
2) C[N+]1(C)CCCC(C#N)(c2ccccc2)CC1 (stereo not drawn)    1 (yes)
3) O=C(/C=C/c1ccc(-c2ccccc2)cc1)NCc1ccc(C(=O)NCCc2ccccc2)cc1    1 (yes)
4) Cc1ccc(-c2nc(NCCOCCOCCN)nc(N3CCN(c4ccccn4)CC3)n2)cc1    0 (no)
5) CC1CC(=O)N(N(C)C)C2(C#N)C(=O)N=C(N)C12C#N (stereo not drawn)    1 (yes)
6) COC1OC2COC(=O)c3cc(O)c(O)c(O)c3-c3c(cc(O)c(O)c3O)C(=O)OC2C(O)C1O (stereo not drawn)    1 (yes)
7) CN1CCCCC1CCN1c2ccccc2Sc2ccc(Br)cc21 (stereo not drawn)    0 (no)
8) CC(=O)CCC1(c2ccccc2)OC(=O)C(C#N)=C1c1ccccc1 (stereo not drawn)    1 (yes)
9) C=CCC(N[C@@H](CO)c1ccccc1)c1ccc2ccccc2n1 (stereo partly drawn)    1 (yes)
10) Nc1ncn([C@H]2CC(O)[C@@H](CO)S2)c(=O)n1 (stereo partly drawn)    1 (yes)
11) COc1cccc(/C=C2\N=C(c3ccccc3)OC2=O)c1    1 (yes)

###

Test system: DU-145 prostate
EXPERIMENT: NCI tumour cell line growth inhibition, 48 h
Quick reference: TGI of the listed items.
MEASURED ENDPOINT: TGI (µM)

1. CCOC(=O)Cc1c(C(=O)OCC)[n+](=O)c2cc(Cl)c(Cl)cc2n1[O-]    3.68
2. O=C1CCC(c2ccccc2)=NN1c1nc2ccccc2s1    64.6

###

Quick reference: TGI of the listed items.
Test system: TK-10 renal
EXPERIMENT: NCI tumour cell line growth inhibition, 48 h
MEASURED ENDPOINT: TGI

1. O=C(NNC(=O)c1ccco1)c1ccco1    > 100 µM
2. O=S(=O)(c1ccccc1)N1CCCC(c2ccccc2)CC1 (stereo not given)    > 100 µM
3. C[N+](C)(CCNc1ccc(NCC[N+](C)(C)Cc2ccc([N+](=O)[O-])cc2)c2c1C(=O)c1c(O)ccc(O)c1C2=O)Cc1ccc([N+](=O)[O-])cc1    > 50 µM
4. O=C1NC(N2CCCC(CO)C2)=N/C1=C\c1cccs1 (stereo not given)    > 100 µM
5. Cc1ccc(NCCNCC(C)(C)O)c2c(=O)c3ccc(Cl)cc3sc12    3.89 µM
6. CC1CC(=O)N(N(C)C)C2(C#N)C(=O)N=C(N)C12C#N (stereo not given)    > 100 µM
7. CCOC(=O)C(O)(CC1=NC(C(=O)OC)(C(=O)OC)C(c2cccc(C=O)c2)O1)C(=O)OCC (stereo not given)    > 100 µM
8. O=CN1CCN(c2ccc3ccc(=O)[nH]c3n2)CC1    > 100 µM
9. O=C(C[N+]12CN3CN(CN(C3)C1)C2)c1ccc(-c2ccccc2)cc1    47.3 µM
10. CN1NC(c2ccc(Cl)cc2)=C(C#N)C(=O)CC1c1ccccc1 (stereo not given)    > 100 µM
11. NC1=Nc2cc(C(F)(F)F)ccc2Sc2nc3ccccc3n21    > 100 µM
12. O=P(CN1CCOCC1)(c1ccccc1)c1ccccc1    > 100 µM
13. O=C(/C=C/c1ccc(O)c(O)c1)N1CCN(c2ccc(Cl)cc2)CC1    26.2 µM
14. CC(=O)Oc1ccc2cc(Oc3cc(Cl)c(Cl)cc3Cl)c(=O)oc2c1    74.5 µM
15. COc1cc(/C=C(\C)[N+](=O)[O-])cc(OC)c1    26.1 µM
16. COc1ccc(-c2nsc3c2NC(=O)CC3c2ccsc2)cc1 (stereo not given)    > 100 µM
17. COC1C(OC(=O)c2ccc(C)[nH]2)C(O)C(Oc2ccc3c(O)c(NC(=O)c4ccc(O)c(CC=C(C)C)c4)c(=O)oc3c2Cl)OC1(C)C (stereo not given)    > 100 µM
18. CCOP1(=O)CC(C)=C(Cl)C(OC)C1 (stereo not given)    > 100 µM
19. CC(=O)N[C@@H](Cc1ccc(O)cn1)C(=O)NCc1ccc(Cl)cc1    > 100 µM
20. N#C/C(=C\c1ccc(O)cc1)C(N)=O    > 100 µM
21. COC(=O)c1ccccc1C1CN=NC12Cc1ccc(C)cc1C2=O (stereo not given)    > 100 µM
22. C=CCOCC1C2CCC3(OCCO3)C21 (stereo not given)    > 100 µM
23. COC(=O)c1ccccc1CC1Cc2c(C)ccc(C)c2C1=O (stereo not given)    71.2 µM
24. S=c1ssnc1-c1cc2ccccc2o1    45.9 µM
25. Clc1ccc(C=Nc2ccc(-c3nc4ccccc4[nH]3)cc2)cc1    > 100 µM
